Origin of measurements: patent US6727241B2

# studyTarget: CCR1 (Homo sapiens)
# Sequence (P32246 whole entry): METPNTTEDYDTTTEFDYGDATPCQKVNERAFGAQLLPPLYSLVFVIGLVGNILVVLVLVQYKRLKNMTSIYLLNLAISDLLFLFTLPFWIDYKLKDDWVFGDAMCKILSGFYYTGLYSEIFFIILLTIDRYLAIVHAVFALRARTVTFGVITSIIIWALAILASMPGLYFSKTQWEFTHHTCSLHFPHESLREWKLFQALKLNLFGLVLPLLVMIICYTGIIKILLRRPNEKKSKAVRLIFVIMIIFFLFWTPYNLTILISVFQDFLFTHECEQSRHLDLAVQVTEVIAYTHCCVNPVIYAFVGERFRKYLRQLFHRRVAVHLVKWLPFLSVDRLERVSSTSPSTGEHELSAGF
# assayMethodText: Inhibition of CCR1 ligand binding (125I labeled MIP-1α binding to CCR1 expressing cells)
# Set-up: expressed in transfected cells; host or cells: NSO murine myeloma (CCR1-NSO) or HEK 293 (CCR1-293)
# conditions: CCR1-NSO cells; compound titered 1×10^−8 to 1×10^−4 M; read-out: IC50 (Inhibition Constant; μM), CCR1-MIP-1α binding
measuredQuantity: IC50 (µM)

(a) O=C(O)c1ccc2c(c1)C1C=CCC1C(C(=O)O)N2 (stereo not drawn)
(b) O=C(NN(Cc1c(F)cccc1Cl)c1ccccc1)C(Cl)(Cl)Cl
(c) O=C(O)C1=C(Sc2ccc(Cl)cc2)CSC1
(d) S=c1[nH]nc(-c2ccc(Cl)cc2)n1-c1cccnc1
(e) O=C1NCCCCC1N(Cc1ccccc1F)C(=O)C(c1ccccc1)c1ccccc1 (stereo not drawn)
From the records above, write out the order of decreasing IC50. Your task in answering is to list the labels in the requested order.
c, b, d, e, a
